- System: HUVEC (human umbilical vein endothelial cell) cells
- ASSAY_METHOD_TEXT: Tube formation activity on matrigel
- Type: cell-based
- Design: key: −: control; ±: tube almost resembles control; +: inhibition; ++: significant inhibition; +++: complete inhibition
- TEST_SETTINGS: concentration 5 μM, 16-24 hours
ATTRIBUTE_MEASURED: Tube Formation

COMPOUND	ATTRIBUTE_MEASURED	RESULT
CCCCCCCCN1CC(C(=O)O)N(S(=O)(=O)c2ccc(-n3cccc3)cc2)CC1=O (centres unmarked) [Example 58]	Tube Formation	++
CCCCCCCCCCN1CC(C(=O)O)N(S(=O)(=O)c2ccc(-c3ccc(Br)cc3)cc2)CC1=O (centres unmarked) [Example 47]	Tube Formation	++
CCCCCCN1CC(C(=O)O)N(S(=O)(=O)c2ccc(-c3ccc(Br)cc3)cc2)CC1=O (centres unmarked) [Example 45]	Tube Formation	++
C#CCN1CC(C(=O)O)N(S(=O)(=O)c2ccc(-c3ccc(Br)cc3)cc2)CC1=O (centres unmarked) [Example 35]	Tube Formation	++
CCCCCCCCN1CC(C(=O)O)N(S(=O)(=O)c2ccc(NC(=O)c3ccc(Cl)cc3)cc2)CC1=O (centres unmarked) [Example 60]	Tube Formation	++
COc1ccc(S(=O)(=O)N2CC(=O)N(CCN3CCOCC3)CC2C(=O)NO)cc1.Cl (centres unmarked) [Example 11]	Tube Formation	±
CCCCOCCCN1CC(C(=O)O)N(S(=O)(=O)c2ccc(-c3ccc(Br)cc3)cc2)CC1=O (centres unmarked) [Example 41]	Tube Formation	++
CCCCN1CC(C(=O)O)N(S(=O)(=O)c2ccc(OC)cc2)CC1=O (centres unmarked) [Example 26]	Tube Formation	±
O=C(O)C1CN(Cc2ccccc2)C(=O)CN1S(=O)(=O)c1ccc(-c2ccc(Br)cc2)cc1 (centres unmarked) [Example 37]	Tube Formation	++
CCCCN1CC(C(=O)O)N(S(=O)(=O)c2ccc(-c3ccc(Br)cc3)cc2)CC1=O (centres unmarked) [Example 49]	Tube Formation	++
CCCCCCCCN1CC(C(=O)O)N(S(=O)(=O)c2ccc(-c3ccc(Br)cc3)cc2)CC1=O (centres unmarked) [Example 33]	Tube Formation	+
